- System: SW-620 colon
- procedure details: NCI tumour cell line growth inhibition, 48 h
quantity measured: TGI

[
  {
    "molecule": "COc1cc(-c2cc(=O)c3cc(C)c(C)c(C(=O)O)c3o2)cc(OC)c1OC",
    "TGI": "> 100 µM"
  },
  {
    "molecule": "NC(=O)c1[nH]cnc1/N=N/SCC(N)C(=O)O (stereo not drawn)",
    "TGI": "> 100 µM"
  },
  {
    "molecule": "C/C(Cc1ccc(Cl)cc1)=C(/c1ccc(Cl)cc1)c1ccc(OCCN(C)C)cc1",
    "TGI": "6.1 µM"
  },
  {
    "molecule": "CC1=C[S+](c2ccccc2)c2cccc3cc4ccccc4c1c23 (stereo not drawn)",
    "TGI": "1.65 µM"
  }
]

TGI for "O=C1CCc2c(sc3[nH]c(=S)n(Cc4ccccc4)c(=O)c23)C1" is > 100 µM

Sure, the documented TGI for COc1cccc(C2C3=C(COC3=O)Oc3cc4c(cc32)OCO4)c1 (stereo not drawn) is > 100 µM

Short answer for "Cc1c(C)c2c(c(N)c1C#N)C(=O)N(CCN1CCNCC1)C2=O" : TGI was > 100 µM

The molecule listed as "CN(C)c1ccc(/C=N\N2C(=O)c3ccccc3C2=O)cc1" has a reported TGI of > 100 µM

* * *

- System: HOP-62 NSCLC
- procedure details: NCI tumour cell line growth inhibition, 48 h
quantity measured: TGI

Please review the entries below; each comes with its answer.
[
  {
    "compound": "COc1cc2c(cc1O)[C@@H]1Cc3c(cc(OC)c(OC)c3Oc3cc4c(cc3OC)CCN(C)[C@@H]4Cc3ccc(O)cc3)[C@H](C2)N1C",
    "result": "> 100 µM"
  },
  {
    "compound": "N[C@@H]1CCCN(c2c(/C=C3\\SC(=O)NC3=O)cccc2-c2ccccc2)C1",
    "result": "25.5 µM"
  },
  {
    "compound": "COc1ccc(/C=C2\\N=C(NN)N=C2Cl)cc1",
    "result": "> 100 µM"
  },
  {
    "compound": "O=C1NC(N2CCCC(CO)C2)=N/C1=C\\c1ccc(Cl)cc1 (stereo not given)",
    "result": "> 100 µM"
  },
  {
    "compound": "CC1=C(c2cc(C(=O)Nc3cccc(C(F)(F)F)c3)ncn2)Sc2ccccc2N1",
    "result": "> 100 µM"
  }
]

Shift focus to the following entry.
Record "O=C(O)C12CCCC(CCC1)C2" . Reported TGI: > 100 µM

* * *

- Tested on: OVCAR-4 ovarian
- procedure details: NCI tumour cell line growth inhibition, 48 h
TGI overview

Examples from the recorded data:
[
  {
    "compound": "COc1ccc2c(c1)CCC1=CC3(CCC12C)SCCS3 (configuration not stated)",
    "assayed target": "OVCAR-4 ovarian",
    "result": "> 10 µM"
  },
  {
    "compound": "Cc1c2c(n(CCN(C)C)c1C)NN=C(C#N)S2(=O)=O",
    "assayed target": "OVCAR-4 ovarian",
    "result": "> 100 µM"
  }
]

Reading of TGI for "CS(=O)(=O)CCNCc1ccc(-c2ccc3ncnc(Nc4ccc(OCc5ccccc5)c(Cl)c4)c3c2)o1" with OVCAR-4 ovarian: > 25 µM

Reported TGI (OVCAR-4 ovarian) for entry "CCc1nc(N)nc(N)c1-c1ccc(NCCc2ccccc2)c([N+](=O)[O-])c1" is 46.2 µM

"CC(=O)NNc1nc(C)c(C(/C=C/c2ccc(Cl)cc2)=N/NC(=O)C[N+](C)(C)C)s1" on OVCAR-4 ovarian gives TGI = > 100 µM

Measured TGI (OVCAR-4 ovarian), entry "CN(C)c1n/c(=N/c2ncn[nH]2)ss1" : > 100 µM
